Test Name: Solubility of the compound in PBS incubated overnight at pH 6.5 by HPLC-UV analysis
Type: physicochemical
Test Context: buffer

| Cpd Smiles | solubility |
| --- | --- |
| CCOc1ccc2cc(-c3nn(C(C)(C)C)c(N)c3C(N)=O)cnc2c1 | Insoluble |
| CCOc1ccc2cc(-c3nn(CC(C)(C)CO)c(N)c3C(N)=O)ccc2n1 | soluble |
| CC(C)(C)n1nc(-c2cnc3cc(OC4CC4)ccc3c2)c(C(N)=O)c1N | soluble |
| CC(C)(C)n1nc(-c2cnc3cc(OC4CCC4)ccc3c2)c(C(N)=O)c1N | Insoluble |
